target: T1, TAT194 polypeptide as used in the BIAcore analysis (human, UniProt P07949 29-635, limits assumed); test: standard BIAcore analysis
T1 construct: The construct used for the BIAcore analysis (extracellular domain, tag, fusion, isoform) is not described; also called RET
pKd: −log10 of the molar value.

{"columns": ["Binder", "pKd"],
 "data": [
  ["anti-TAT194 monoclonal antibody R4212 (antibody, V domains shown, Monoclonal antibody from a mouse hybridoma; kappa VL) VH: DVQLQESGPGLVAPSQSLSITCTVSGFSLSRYSVHWVRQPPGKGLEWLGMIWLGGSTDYNSALKSRLSISKDISKSQVFLKMNSLQTDDTAMYYCARNLDSRGFAHWGQGTLVTVSA VL: DVLMTQTPLSLPVSLGDQASISCRSSQSIVHSNGNTYLEWYLQKPGQSPKLLIYKVSNRFSGVPDRFSGSGSGTDFTLKISRVEAEDLGVYYCFQGSHVPPTFGGGTKLEIKR", 6.98],
  ["anti-TAT194 monoclonal antibody R4205 (antibody, V domains shown, Monoclonal antibody from a mouse hybridoma; kappa VL; also called anti-RET murine monoclonal antibody clone 4205) VH: QVQLKESGPGLVKPSQSLSLTCTVTGYSITSDYVWNWIRQFPGNKLEWMGYIHYSGGTSYNPSLKSRISITRDTSKNQFFLHLNSLTTEDTATYYCARGNYDWAFAYWGQGTLVTVSA VL: DVQITQSPSYLAASPGETITINCRASKSISKYLAWYQDKPGKTNKLLISSGSTLQSGIPSRFSGSGSGADFTLTISSLEPEDFAMYYCQQHNEYPWTFGGGTKLEIKR", 9.74],
  ["anti-TAT194 monoclonal antibody R4203 (antibody, V domains shown, Monoclonal antibody from a mouse hybridoma; kappa VL) VH: EVQLQQSGPELVKPGASMKISCKASGYSFTGFTMNWVKQSHGKNLEWIGLINPYNGVTNYNQKFRGKATLTVDESSSTAYMDLLSLTSEDSAVYYCARHYSFAMDYWGQGTSVTVSS VL: DIVLTQSPASLAVSLGQRATISCRASESVDGYGSSFMHWYQQKPGQPPKLLIYRTSNLESGIPARFSGSGSTTDFTLTINPVEADDVATYYCQQNSEDRTFGGGTKLEIKR", 10.00],
  ["anti-TAT194 monoclonal antibody R4209 (antibody, V domains shown, Monoclonal antibody from a mouse hybridoma; kappa VL) VH: EVNLEESGGGLVQPGGSMKLSCVASGFTFSNYWMNWVRQSPEKGLEWVADISLKSNNYGTHYAESVNGRFTISRDDSTSSVYLQMNNLRAEDTGIYYCAVYYYGVKFYYFVLGYWGQGTSVTVSS VL: DIVMTQSHKFMSTSVGDRVSITCKASQDVSTAVAWYQQKPGQSPKLLIYWGSTRHTGVPDRFTGVGSGTDYSLTISSVQAEDLALYYCQQHYNIPWTFGGGTKLEIKR", 8.59]
]}
